molecular target: humanized development candidate monoclonal antibody IgG4 (hIgG4); assay: Gyrolab, mAb as capture, hIgG4 8 ng/ml
So I've got a bunch of binders here, and I need their Av. Resp. values.
Returns: the value as a bare number; no unit string appended.

Quick one: Av. Resp. of rabbit anti-human IgG monoclonal antibody clone 2C5 (antibody, V domains shown) VH: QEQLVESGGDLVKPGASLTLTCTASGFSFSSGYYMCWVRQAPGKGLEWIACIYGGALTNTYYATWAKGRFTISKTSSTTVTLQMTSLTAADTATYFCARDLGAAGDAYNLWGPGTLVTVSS VL: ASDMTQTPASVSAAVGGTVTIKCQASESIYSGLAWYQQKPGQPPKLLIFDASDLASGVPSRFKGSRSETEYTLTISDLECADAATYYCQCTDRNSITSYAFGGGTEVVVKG ? 6.6

What Av. Resp. value was documented for this binder, rabbit anti-human IgG monoclonal antibody clone 11F9 (antibody, V domains shown) VH: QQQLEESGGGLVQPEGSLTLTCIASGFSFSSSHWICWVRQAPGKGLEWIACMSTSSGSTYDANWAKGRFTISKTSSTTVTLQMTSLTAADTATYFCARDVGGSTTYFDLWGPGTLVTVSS VL: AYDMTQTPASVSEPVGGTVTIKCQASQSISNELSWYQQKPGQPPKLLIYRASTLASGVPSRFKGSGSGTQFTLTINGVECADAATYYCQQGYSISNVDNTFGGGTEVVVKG ? 12.8

Recorded Av. Resp. of rabbit anti-human IgG monoclonal antibody clone 11G5 (antibody, V domains shown) VH: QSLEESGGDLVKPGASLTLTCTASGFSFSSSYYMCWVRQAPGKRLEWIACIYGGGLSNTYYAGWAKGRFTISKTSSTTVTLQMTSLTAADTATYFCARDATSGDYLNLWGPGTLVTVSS VL: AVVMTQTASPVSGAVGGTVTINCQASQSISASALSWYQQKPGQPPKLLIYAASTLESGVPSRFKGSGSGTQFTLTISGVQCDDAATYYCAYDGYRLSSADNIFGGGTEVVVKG , please. 20.3

Need Av. Resp., item rabbit anti-human IgG monoclonal antibody clone 19B1 (antibody, V domains shown) VH: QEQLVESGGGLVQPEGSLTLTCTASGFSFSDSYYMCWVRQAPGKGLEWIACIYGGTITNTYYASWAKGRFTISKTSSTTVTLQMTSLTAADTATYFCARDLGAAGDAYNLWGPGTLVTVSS VL: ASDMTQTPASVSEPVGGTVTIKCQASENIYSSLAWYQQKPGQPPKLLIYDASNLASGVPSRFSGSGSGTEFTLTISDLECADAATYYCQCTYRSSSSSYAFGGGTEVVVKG 6.2

Each recorded value in this set is attributed to patent US20250237662A1.
